- Target Desc: ligand-binding domain of RORγ (RORγ-LBD) (Homo sapiens, UniProt P51449)
- Construct: purchased Invitrogen
- Sequence (P51449 269-508 limits assumed): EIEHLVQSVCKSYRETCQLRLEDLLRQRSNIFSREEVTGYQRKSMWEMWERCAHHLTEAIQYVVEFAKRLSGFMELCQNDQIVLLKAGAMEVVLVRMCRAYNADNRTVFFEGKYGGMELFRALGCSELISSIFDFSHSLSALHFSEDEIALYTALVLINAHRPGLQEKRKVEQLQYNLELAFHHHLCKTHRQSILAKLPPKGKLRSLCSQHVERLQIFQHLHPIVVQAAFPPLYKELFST
- Experiment Notes: Inhibitory effect on RORγ-coactivator binding (LanthaScreen TR-FRET RORγ Coactivator Assay)
- Experimental Context: at 33 μmol/L of the test compound; read-out: RORγ-coactivator binding inhibition rate (%)
Collected inhibition at 33 µM values appear next to each entry.
The figure you give is taken to be in %; do not add the unit.

{"columns": ["Molecule", "Unit Descriptor", "inhibition at 33 µM"],
 "data": [
  ["CC(=O)N1CC[C@@H](F)C[C@@H]1C(=O)Nc1ccc(-c2ccccc2OC(F)(F)F)c(Cl)c1", "%", 94.2],
  ["CS(=O)(=O)N1CCCC[C@@H]1C(=O)Nc1ccc(-c2ccccc2OC(F)(F)F)c(Cl)c1", "%", 98.2],
  ["O=C(Nc1ccc(-c2ccccc2OC(F)(F)F)c(Cl)c1)[C@H]1CCCCN1C(=O)Cn1cccn1", "%", 102]
]}

Query: Quick one: inhibition at 33 µM of O=C(Nc1ccc(-c2ccccc2OC(F)(F)F)c(Cl)c1)C1CCCCN1C(=O)CCO (centres unmarked) ?
Result: 92.8

Query: Item: CS(=O)(=O)N1CCCCC1C(=O)Nc1ccc(-c2ccccc2OC(F)(F)F)c(Cl)c1 (centres unmarked)
Result: 100

Query: Item: COCC(=O)N1CCCCC1C(=O)Nc1ccc(-c2ccccc2OC(F)(F)F)c(Cl)c1 (centres unmarked)
Result: 90.3

Query: Item: Cc1cc(C)n(CC(=O)N2CCCCC2C(=O)Nc2ccc(-c3ccccc3OC(F)(F)F)c(Cl)c2)n1 (centres unmarked)
Result: 104

Query: Item: CS(=O)(=O)NCCC(=O)N1CCCCC1C(=O)Nc1ccc(-c2ccccc2OC(F)(F)F)c(Cl)c1 (centres unmarked)
Result: 94.7
